Ref: patent US10640486B2

Reported pIC50 values follow for various compounds
Target: human Plasma Kallikrein (KLKB1) (Homo sapiens (Human), UniProt P03952)
Sequence (P03952 391-638): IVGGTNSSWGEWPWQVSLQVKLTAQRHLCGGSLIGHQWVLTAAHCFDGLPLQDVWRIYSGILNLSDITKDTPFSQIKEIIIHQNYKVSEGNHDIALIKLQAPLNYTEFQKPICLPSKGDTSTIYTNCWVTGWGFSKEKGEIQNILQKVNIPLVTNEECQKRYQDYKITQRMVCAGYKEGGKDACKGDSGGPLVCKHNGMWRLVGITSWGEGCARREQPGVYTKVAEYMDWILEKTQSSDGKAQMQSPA
Sequence (P03952 20-390 partner): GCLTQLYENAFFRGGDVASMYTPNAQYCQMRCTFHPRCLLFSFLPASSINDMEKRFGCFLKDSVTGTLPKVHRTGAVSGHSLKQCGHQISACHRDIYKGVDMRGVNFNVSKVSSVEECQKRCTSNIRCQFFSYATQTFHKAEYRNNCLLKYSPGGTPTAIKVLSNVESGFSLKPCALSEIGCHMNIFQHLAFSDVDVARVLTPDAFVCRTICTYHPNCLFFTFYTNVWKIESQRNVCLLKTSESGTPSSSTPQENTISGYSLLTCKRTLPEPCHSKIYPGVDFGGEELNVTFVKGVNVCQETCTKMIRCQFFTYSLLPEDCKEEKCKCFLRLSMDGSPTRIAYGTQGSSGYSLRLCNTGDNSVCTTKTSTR
Experiment: Inhibition of KLKB1 endpoint assay
Type: biochemical
Settings: fluorogenic substrate H-Pro-Phe-Arg-AMC, 1 hr at Room Temperature, read-out: IC50 measurements for the inhibition of human Plasma Kallikrein (KLKB1)
Experimental: […] Subsequently, PPACK II (Calbiochem) was added as a stop solution to achieve a final concentration of 1 μM and fluorescence was measured using an Envision Reader (PerkinElmer) with the wavelength excitation setting of 355 nm and the wavelength emission setting of 460 nm. […]
// scale note: pIC50 = -log10(conc_M); give the bare number

Use these answered entries as a reference point.
[[record]]
compound = "Nc1ccc2c(n1)CCC2NC(=O)c1cn(Cc2ccc(CN3CCC4(CC4)C3=O)cc2)nn1 (centres unmarked)"
outcome_measure = "pIC50"
reported_value = 6.24

[[record]]
compound = "Nc1nccc2c1CC[C@H]2NC(=O)c1cn(Cc2cnc(N3CC4CC4C3)nc2)nn1 (some centres unmarked)"
outcome_measure = "pIC50"
reported_value = 8.15

[[record]]
compound = "Nc1ccc2c(n1)CC[C@H]2NC(=O)c1cn(Cc2ccc(CN3C[C@H]4C[C@H]4C3=O)cc2)nc1C(F)(F)F"
outcome_measure = "pIC50"
reported_value = 6.38

[[record]]
compound = "Cc1cc(N2CC3CC3C2)ncc1Cn1cc(C(=O)N[C@@H]2CCc3nc(N)ccc32)cn1 (some centres unmarked)"
outcome_measure = "pIC50"
reported_value = 7.52

[[record]]
compound = "Nc1nccc2c1CC[C@H]2NC(=O)c1cn(Cc2cnc(N3CC4CC4C3)cc2C(F)(F)F)nn1 (some centres unmarked)"
outcome_measure = "pIC50"
reported_value = 9.00


What does the record list as pIC50 for Nc1nccc2c1CC[C@H]2NC(=O)c1cnn(Cc2ccc(CN3CC4CC4C3=O)c(C(F)(F)F)c2)c1 (single isomer, unassigned) [Example 52] ? 7.39

Follow-up item: Nc1ccc2c(n1)CCC2NC(=O)c1cn(Cc2ccc(CN3CC4CCCN4C3=O)cc2)nn1 (centres unmarked) 6.47
